The reported numbers originate from patent US9725518B2.

# PROCEDURE DETAILS: Soluble aggregates of transiently expressed antibodies
# Type: physicochemical
# ASSAY CONDITIONS: Protein A purified antibody
PROPERTY MEASURED: % soluble aggregate (%)

[[record]]
molecule = "J1-65D variant 12: humanised/de-immunised J1-65D: J1-65D_VL_3 + J1-65D_VH_4 (antibody, V domains shown) VH: QVQLVQSGAEVKKPGSSVKVSCKASGYTFTDYEMHWVRQAPGQGLEWMGAIQPGGGGTAYAQKFQGRVTITADKSTSTAYMELSSLRSEDTAVYYCTRRGYDDYPFAYWGQGTLVTVSSASTKGP VL: DIQMTQSPSSLSASVGDRVTITCRASGNIHNYLAWYQQKPGKAPKLLIYNAKTLADAVPSRFSGSGSGTDYTLTISSLQPEDFATYYCQHFWSAPWTFGQGTKLEIKRT"
result = 0.47

[[record]]
molecule = "J1-183D variant 1: humanised/de-immunised J1-183D: J1-183D_VL_1 + J1-183D_VH_1 (antibody, V domains shown) VH: QVQLVQSGAELKKPGASVKVSCKVSGYAFTDYAIHWIRQAPGQGLEWMGIINTYYGDSKYNQKFKDRVTMTVDKSTSTAYMELSSLRSEDTAVYYCARGYDGFAYWGQGTLVTVSSASTKGP VL: DIQMTQSPSSLSASVGDRVTITCRTSENIYSYLTWYQQKPGKAPKLLVYNAKILAAGVPSRFSGSGSGTDFTLTISSLQPEDFATYYCQHHYDIPWTFGGGTKLEIKRT"
result = 3.65

[[record]]
molecule = "J1-183D chimeric: chimeric antibody with unaltered CDRs: J1-183D_VL + J1-183D_VH (antibody, V domains shown) VH: QVQLQQPGTELVRPGVSVKISCKVSGYAFTDYAIHWIMQSHAKSLEWIGIINTYYGDSKYNQKFKDKATMTVDKSSNTAYMELARLTSEDSAIYYCARGYDGFAYWGQGTLVTVSS VL: DIQLTQSPASLSASVGETVTFTCRTSENIYSYLTWYQQKQGKSPQLLVYNAKILAAGVPSRFSGYGSGTQFSLKINSLQPEDFGTYYCQHHYDIPWTFGGGTKLEIK"
result = 1.41

[[record]]
molecule = "J1-183D variant 11: humanised/de-immunised J1-183D: J1-183D_VL_3 + J1-183D_VH_3 (antibody, V domains shown) VH: QVQLVQSGAELKKPGASVKVSCKVSGYAFTDYAIHWVRQAPGQGLEWMGIINTYYGDSKYAQKFQGRVTMTVDTSTSTAYMELSSLRSEDTAVYYCARGYDGFAYWGQGTLVTVSSASTKGP VL: DIQMTQSPSSLSASVGDRVTITCRTSENIYSYLTWYQQKPGKAPKLLIYNAKILDSGVPSRFSGSGSGTDFTLTISSLQPEDFATYYCQHHYDIPWTFGGGTKLEIKRT"
result = 2.5

[[record]]
molecule = "J1-183D variant 7: humanised/de-immunised J1-183D: J1-183D_VL_2 + J1-183D_VH_3 (antibody, V domains shown) VH: QVQLVQSGAELKKPGASVKVSCKVSGYAFTDYAIHWVRQAPGQGLEWMGIINTYYGDSKYAQKFQGRVTMTVDTSTSTAYMELSSLRSEDTAVYYCARGYDGFAYWGQGTLVTVSSASTKGP VL: DIQMTQSPSSLSASVGDRVTITCRTSENIYSYLTWYQQKPGKAPKLLIYNAKTLASGVPSRFSGSGSGTDFTLTISSLQPEDFATYYCQHHYDIPWTFGGGTKLEIKRT"
result = 3.92

[[record]]
molecule = "J1-183D variant 13: humanised/de-immunised J1-183D: J1-183D_VL_4 + J1-183D_VH_1 (antibody, V domains shown) VH: QVQLVQSGAELKKPGASVKVSCKVSGYAFTDYAIHWIRQAPGQGLEWMGIINTYYGDSKYNQKFKDRVTMTVDKSTSTAYMELSSLRSEDTAVYYCARGYDGFAYWGQGTLVTVSSASTKGP VL: DIQMTQSPSSLSASVGDRVTITCRTSENIYSYLTWYQQKPGKAPKLLIYHAKILDSGVPSRFSGSGSGTDFTLTISSLQPEDFATYYCQHHYDIPWTFGGGTKLEIKRT"
result = 3.43

[[record]]
molecule = "J1-65D variant 1: humanised/de-immunised J1-65D: J1-65D_VL_1 + J1-65D_VH_1 (antibody, V domains shown) VH: QVQLVQSGAELKKPGSSVKVSCKASGYTFTDYEMHWVRQAPGQGLEWMGAIQPGGGGTAYNQKFKGRVTLTADKSTSTAYMELSSLRSEDTAVYYCTRRGYDDYPFAYWGQGTLVTVSSASTKGP VL: DIQMTQSPSSLSASVGDRVTITCRASGNIHNYLAWYQQKPGKAPKLLIYNAKTLADDVPSRFSGSGSGTDYTLTISSLQPEDFATYYCQHFWSAPWTFGGGTKLEIKRT"
result = 0

[[record]]
molecule = "J1-65D variant 2: humanised/de-immunised J1-65D: J1-65D_VL_1 + J1-65D_VH_2 (antibody, V domains shown) VH: QVQLVQSGAELKKPGSSVKVSCKASGYTFTDYEMHWVRQAPGQGLEWMGAIQPGGGGTAYAQKFKGRVTLTADKSTSTAYMELSSLRSEDTAVYYCTRRGYDDYPFAYWGQGTLVTVSSASTKGP VL: DIQMTQSPSSLSASVGDRVTITCRASGNIHNYLAWYQQKPGKAPKLLIYNAKTLADDVPSRFSGSGSGTDYTLTISSLQPEDFATYYCQHFWSAPWTFGGGTKLEIKRT"
result = 0

[[record]]
molecule = "J1-65D variant 5: humanised/de-immunised J1-65D: J1-65D_VL_2 + J1-65D_VH_1 (antibody, V domains shown) VH: QVQLVQSGAELKKPGSSVKVSCKASGYTFTDYEMHWVRQAPGQGLEWMGAIQPGGGGTAYNQKFKGRVTLTADKSTSTAYMELSSLRSEDTAVYYCTRRGYDDYPFAYWGQGTLVTVSSASTKGP VL: DIQMTQSPSSLSASVGDRVTITCRASGNIHNYLAWYQQKPGKAPKLLIYNAKTLADAVPSRFSGSGSGTDYTLTISSLQPEDFATYYCQHFWSAPWTFGGGTKLEIKRT"
result = 0

